The reader will find reported IC (TGI) values listed item by item below.
Tested on: HCT-116
Assay: NCI 60 five-dose screen HCT-116
Type: cell-based
Conditions: Homo sapiens, five-dose
Returns: string containing the number followed by the unit.

*Q* Provide IC (TGI), recorded with HCT-116, of FC(F)(F)c1cc2c(Cl)ncnc2n1CCN1CCOCC1 [NUCC-0226680]
*A* 100 µM

*Q* Provide IC (TGI), recorded with HCT-116, of OC1CCC(Cn2c(C(F)(F)F)cc3c(Cl)ncnc32)CC1 (centres unmarked) [NUCC-0226689]
*A* 15.8 µM

*Q* Provide IC (TGI), recorded with HCT-116, of FC(F)(F)CN1CCN(CCn2c(C(F)(F)F)cc3c(Cl)ncnc32)CC1 [NUCC-0226683]
*A* 13.2 µM

*Q* Provide IC (TGI), recorded with HCT-116, of FC(F)(F)c1cc2c(Cl)ncnc2n1CCN1CCCCC1 [NUCC-0226679]
*A* 20.4 µM

*Q* Provide IC (TGI), recorded with HCT-116, of FC(F)(F)c1cc2c(Cl)ncnc2n1CCC1CCOCC1 [NUCC-0226674]
*A* 6.46 µM

* * *

The reader will find reported IC50 values listed item by item below.
Tested on: MDA-MB-468
Experiment: NCI 60 five-dose screen MDA-MB-468
Type: cell-based
Details: Homo sapiens, five-dose
Returns: string containing the number followed by the unit.

Solved cases (3 shown):
| compound | tested system | IC50 |
| --- | --- | --- |
| FC(F)(F)c1cc2c(Cl)ncnc2n1CCN1CCOCC1 | MDA-MB-468 | 15.8 µM |
| OC1CCC(Cn2c(C(F)(F)F)cc3c(Cl)ncnc32)CC1 (centres unmarked) | MDA-MB-468 | 7.08 µM |
| FC(F)(F)c1cc2c(Cl)ncnc2n1CCC1CCOCC1 | MDA-MB-468 | 3.8 µM |

*Q* Identify measured IC50 corresponding to `FC(F)(F)CN1CCN(CCn2c(C(F)(F)F)cc3c(Cl)ncnc32)CC1`
*A* 6.03 µM

*Q* Identify measured IC50 corresponding to `FC(F)(F)c1cc2c(Cl)ncnc2n1CCN1CCCCC1`
*A* 18.2 µM

* * *

The reader will find reported GI50 values listed item by item below.
Test system: TK-10
Test: NCI 60 five-dose screen TK-10
Format: cell-based
Conditions: Homo sapiens, five-dose
Returns: string containing the number followed by the unit.

| compound | measurement name | reported measurement |
| --- | --- | --- |
| FC(F)(F)c1cc2c(Cl)ncnc2n1CCN1CCOCC1 | GI50 | 100 µM |
| OC1CCC(Cn2c(C(F)(F)F)cc3c(Cl)ncnc32)CC1 (centres unmarked) | GI50 | 100 µM |
| FC(F)(F)CN1CCN(CCn2c(C(F)(F)F)cc3c(Cl)ncnc32)CC1 | GI50 | 35.5 µM |
| FC(F)(F)c1cc2c(Cl)ncnc2n1CCN1CCCCC1 | GI50 | 100 µM |

Shift focus to the following entry.
*Q* Identify measured GI50 corresponding to `FC(F)(F)c1cc2c(Cl)ncnc2n1CCC1CCOCC1`
*A* 17.4 µM

* * *

Tested on: TK-10
Assay: NCI 60 five-dose screen TK-10
Assay type: cell-based
Conditions: Homo sapiens, five-dose
measurement name: pIC50
Conceptually, pIC50 converts a concentration in mol/L into minus its log10.

Solved cases (3 shown):
| compound | pIC50 |
| --- | --- |
| FC(F)(F)c1cc2c(Cl)ncnc2n1CCN1CCCCC1 | 4.00 |
| FC(F)(F)c1cc2c(Cl)ncnc2n1CCN1CCOCC1 | 4.00 |
| FC(F)(F)CN1CCN(CCn2c(C(F)(F)F)cc3c(Cl)ncnc32)CC1 | 4.00 |

*Q* Provide pIC50, recorded with TK-10, of OC1CCC(Cn2c(C(F)(F)F)cc3c(Cl)ncnc32)CC1 (centres unmarked)
*A* 4.00

*Q* Provide pIC50, recorded with TK-10, of `FC(F)(F)c1cc2c(Cl)ncnc2n1CCC1CCOCC1`
*A* 4.44
